# Test system: M. tuberculosis H37Rv growth inhibition, glycerol-free medium
# PROTOCOL_NOTES: Mycobacterium tuberculosis H37Rv growth inhibition, glycerol free medium, confirmatory screen (AID 504645);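 also: bacteria grown one week before the viability dye was added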
# CONDITION: measured here: 90% growth inhibition
Labelling field: enter 1 if recorded IC90 is less than 4000 nM. Enter -1 if it equals or exceeds that cut-off.

>>> category_label("CCOC(=O)CSc1ncnc2c1cnn2-c1ccc(C)cc1C")
-1
>>> category_label("CC1CC(C)CN(C(=O)c2ccc(CNc3c(N4CCCC4)c(=O)c3=O)cc2)C1 (stereo not drawn)")
-1
>>> category_label("O=C(NCC(c1cccs1)N1CCOCC1)c1cc([N+](=O)[O-])cc([N+](=O)[O-])c1 (stereo not drawn)")
1
>>> category_label("CC(C)CCNC(=O)CSc1nc2ccccc2c(=O)[nH]1")
1
>>> category_label("Nc1c(C(=O)NC2CCCCC2)nsc1C(=O)OCC(=O)NC1CCCCC1")
1
>>> category_label("S=c1nc[nH]c2nc[nH]c12")
1
>>> category_label("CC(=NCc1ccc2c(c1)OCO2)C1=C(O)c2ccccc2C1=O")
1
>>> category_label("CNc1nc(SCc2ccccc2Cl)nc2c1CCCC2")
1
>>> category_label("O=C(/C=C\\c1cccs1)N1CCN(Cc2ccc3c(c2)OCO3)CC1")
1
>>> category_label("CCOC1OC(=O)C(Cl)=C1Nc1ccccc1C (stereo not drawn)")
-1
>>> category_label("CCc1ccc(/C=C2/C(=O)N(C)C(=S)N2CC(=O)OC)s1")
-1
>>> category_label("Cc1ccc(C(=O)N/N=C(/CC(=O)c2cccs2)C(F)(F)F)cc1")
1
>>> category_label("CC1CC(C)CN(C(=O)C2CCC(CNc3c(N4CCCCC4)c(=O)c3=O)CC2)C1 (stereo not drawn)")
-1
>>> category_label("Cc1cccc(-c2oc3ccc(-c4ccc5c(c4)OCO5)cc3c2C#Cc2cncn2C)c1")
1
>>> category_label("Cc1ccc2c(c1)c(C1=c3ccccc3=NC1=O)c(O)n2C")
1
>>> category_label("O=C(c1ccc(CNc2c(N3CCCC3)c(=O)c2=O)cc1)N1CCN(C2CCCCC2)CC1")
-1
>>> category_label("CCOC(=O)CSc1ncnc2c1cnn2-c1ccc(C)cc1")
-1
>>> category_label("CC(=O)c1ccc(NC(=O)c2ccc(CNc3c(N4CCOCC4)c(=O)c3=O)cc2)cc1")
-1

---

Recorded pIC50 by entry
# Test system: M. tuberculosis H37Rv growth inhibition, glycerol-free medium
# PROTOCOL_NOTES: Mycobacterium tuberculosis H37Rv growth inhibition, glycerol free medium, confirmatory screen (AID 504645);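 also: bacteria grown one week before the viability dye was added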
pIC50: −log10 of the molar value.
OBSERVABLE: pIC50

>>> val("Cc1cc(Br)ccc1NC(=O)c1cnc(N2CCN(c3ccccn3)CC2)c2ccccc12")
5.90
>>> val("COC(=O)C1CC(=O)N(c2ccc(OCc3ccccc3Cl)cc2)C1 (stereo unspecified)")
6.12
>>> val("Cc1ccc2c(c1)c(C1=c3ccccc3=NC1=O)c(O)n2C")
5.84
>>> val("CCC(C)Nc1ccc(NC(C)CC)cc1 (stereo unspecified)")
5.90
>>> val("CC1CC(C)CN(C(=O)C2CCC(CNc3c(N4CCCCC4)c(=O)c3=O)CC2)C1 (stereo unspecified)")
4.88
>>> val("Cc1cccc(-c2oc3ccc(-c4ccc5c(c4)OCO5)cc3c2C#Cc2cncn2C)c1")
5.86
>>> val("S=c1nc[nH]c2nc[nH]c12")
5.83
>>> val("CC(=O)c1ccc(NC(=O)c2ccc(CNc3c(N4CCOCC4)c(=O)c3=O)cc2)cc1")
4.70
>>> val("CCOC(=O)CSc1ncnc2c1cnn2-c1ccccc1")
4.88
>>> val("COC(=O)CSc1ncnc2c1cnn2-c1ccc(C)cc1C")
5.35
>>> val("CCOC(=O)CSc1ncnc2c1nnn2-c1ccc(F)cc1")
5.44
